Measured pKi of individual entries
# tested.system: human Y2 receptor (Homo sapiens)
# Construct: expressed in transfected cells; host or cells: COS-7 (transient)
# Sequence (P49146 whole entry): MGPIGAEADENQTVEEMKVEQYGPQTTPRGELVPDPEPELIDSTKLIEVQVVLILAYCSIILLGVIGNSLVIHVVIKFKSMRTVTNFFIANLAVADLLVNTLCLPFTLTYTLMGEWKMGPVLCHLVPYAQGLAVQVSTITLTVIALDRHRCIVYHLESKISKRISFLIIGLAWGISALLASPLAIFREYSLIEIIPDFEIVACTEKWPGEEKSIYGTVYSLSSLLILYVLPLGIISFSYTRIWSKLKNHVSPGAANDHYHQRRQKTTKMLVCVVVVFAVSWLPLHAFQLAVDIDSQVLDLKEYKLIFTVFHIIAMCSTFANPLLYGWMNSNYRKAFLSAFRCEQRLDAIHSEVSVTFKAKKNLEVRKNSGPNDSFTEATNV
# measurement.notes: ^125I-PYY binding to membranes, cloned human Y2 receptor
# measurement.conditions: read-out: Binding Affinity Ki vs. ^125I-PYY, Human Receptor Y2; Table 14; stably transfected 293 cells (compound 1 also COS-7)
pKi: −log10 of the molar value.

molecule: Cl.O=S(=O)(NC[C@H]1CC[C@H](CNCc2ccc3ccccc3c2)CC1)c1ccccc1C(F)(F)F
pKi: 5.79
//
molecule: Cl.O=[N+]([O-])c1ccccc1S(=O)(=O)NC[C@H]1CC[C@H](CNCC2CCc3ccccc3C2)CC1 (mixture of isomers)
pKi: 5.11
//
molecule: Cl.Cl.Nc1ccccc1S(=O)(=O)NC[C@H]1CC[C@H](CNCC2CCc3ccccc3C2)CC1 (mixture of isomers)
pKi: 5.12

---

# tested.system: human Y1 receptor (Homo sapiens)
# Construct: expressed in transfected cells; host or cells: COS-7 (transient)
# measurement.notes: ^125I-PYY binding to membranes, cloned human Y1 receptor

compound: NCC(Cc1ccccc1)Nc1cccc2ccccc12 (stereo not shown) [Compound 28]
Ki: > 100 µM

---

# tested.system: human Y4 receptor (Homo sapiens)
# Construct: expressed in transfected cells; host or cells: COS-7 (transient)
# Sequence (P50391 whole entry): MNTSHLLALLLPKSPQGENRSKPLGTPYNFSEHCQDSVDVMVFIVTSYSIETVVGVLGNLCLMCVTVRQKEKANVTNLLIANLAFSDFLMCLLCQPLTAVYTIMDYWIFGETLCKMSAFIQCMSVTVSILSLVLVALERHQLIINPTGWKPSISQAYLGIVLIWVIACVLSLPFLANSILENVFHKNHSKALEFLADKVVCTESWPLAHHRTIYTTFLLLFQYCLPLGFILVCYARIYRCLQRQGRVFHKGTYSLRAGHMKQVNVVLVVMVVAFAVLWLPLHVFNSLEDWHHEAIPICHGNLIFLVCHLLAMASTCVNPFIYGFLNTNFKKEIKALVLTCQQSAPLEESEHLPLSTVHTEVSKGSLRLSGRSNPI
# measurement.notes: ^125I-PYY binding to membranes, cloned human Y4 receptor
# measurement.conditions: read-out: Binding Affinity Ki vs. ^125I-PYY, Human Receptor Y4; Table 14; stably transfected LM(tk-) cells
Mark each entry Fulfilled if its Ki sits below 20 µM, and Not fulfilled for all others.

compound: Cl.O=S(=O)(NC[C@H]1CC[C@H](CNCc2ccc3ccccc3c2)CC1)c1ccccc1C(F)(F)F
tested.system: human Y4 receptor (Homo sapiens)
assigned.label: Fulfilled
//
compound: Cl.O=S(=O)(NC[C@H]1CC[C@H](CNCC2CCc3ccccc3C2)CC1)c1cccc2ccccc12 (mixture of isomers)
tested.system: human Y4 receptor (Homo sapiens)
assigned.label: Fulfilled
//
compound: Cl.O=S(=O)(NC[C@H]1CC[C@H](CNCc2cccc3ccccc23)CC1)c1ccccc1C(F)(F)F
tested.system: human Y4 receptor (Homo sapiens)
assigned.label: Not fulfilled
//
compound: O=S(=O)(NC[C@H]1CC[C@H](CNC(CO)Cc2ccc(Cl)cc2)CC1)c1cccc2ccccc12 (stereo partly shown)
tested.system: human Y4 receptor (Homo sapiens)
assigned.label: Fulfilled
//
compound: Cl.Cl.Nc1ccccc1S(=O)(=O)NC[C@H]1CC[C@H](CNCC2CCc3ccccc3C2)CC1 (mixture of isomers)
tested.system: human Y4 receptor (Homo sapiens)
assigned.label: Not fulfilled
//
compound: Cl.Cl.O=[N+]([O-])c1ccccc1S(=O)(=O)NC[C@H]1CC[C@H](CNCc2ccc3ccccc3n2)CC1
tested.system: human Y4 receptor (Homo sapiens)
assigned.label: Fulfilled

---

# tested.system: UniProt Q63634
# Sequence (Q63634 1-445): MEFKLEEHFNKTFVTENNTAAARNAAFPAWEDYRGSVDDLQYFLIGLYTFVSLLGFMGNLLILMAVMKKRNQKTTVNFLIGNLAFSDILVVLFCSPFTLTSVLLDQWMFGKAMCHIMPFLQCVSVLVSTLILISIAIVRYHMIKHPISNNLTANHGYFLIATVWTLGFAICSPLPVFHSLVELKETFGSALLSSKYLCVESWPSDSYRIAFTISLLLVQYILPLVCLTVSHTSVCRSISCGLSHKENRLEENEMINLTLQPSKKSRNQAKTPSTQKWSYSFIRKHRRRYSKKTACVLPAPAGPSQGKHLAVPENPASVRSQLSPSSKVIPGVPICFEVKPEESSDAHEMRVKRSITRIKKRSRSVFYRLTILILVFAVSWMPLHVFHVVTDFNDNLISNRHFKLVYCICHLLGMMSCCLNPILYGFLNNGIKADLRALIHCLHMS

structure.smiles.string: NC(N)=NCCC[C@@H](NC(=O)C(c1ccccc1)c1ccccc1)C(=O)NCc1ccc(O)cc1
Ki [µM]: 25

---

# tested.system: human Y4 receptor (Homo sapiens)
# Construct: expressed in transfected cells; host or cells: COS-7 (transient)
# measurement.notes: ^125I-PYY binding to membranes, cloned human Y4 receptor
# measurement.conditions: Table 14; stably transfected LM(tk-) cells
pKi: −log10 of the molar value.

molecule: NCC(Cc1ccccc1)Nc1cccc2ccccc12 (stereo not shown) [Compound 28]
tested.system: human Y4 receptor (Homo sapiens)
pKi: < 4.00

---

# tested.system: rat Y2 receptor (Rattus norvegicus)
# Sequence (Q9ERC0 1-381): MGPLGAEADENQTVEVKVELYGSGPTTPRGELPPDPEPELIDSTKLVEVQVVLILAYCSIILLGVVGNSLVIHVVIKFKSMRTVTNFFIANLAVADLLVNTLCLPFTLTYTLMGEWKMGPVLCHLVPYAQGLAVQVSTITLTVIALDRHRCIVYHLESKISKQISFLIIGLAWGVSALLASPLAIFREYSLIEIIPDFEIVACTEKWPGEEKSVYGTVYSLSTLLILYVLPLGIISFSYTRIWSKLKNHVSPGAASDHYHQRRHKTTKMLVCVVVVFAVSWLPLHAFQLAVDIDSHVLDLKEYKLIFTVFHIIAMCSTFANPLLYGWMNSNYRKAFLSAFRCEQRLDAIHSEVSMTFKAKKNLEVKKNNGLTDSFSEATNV
value.kind: Ki (µM)

structure.smiles.string: NC(N)=NCCC[C@@H](NC(=O)C(c1ccccc1)c1ccccc1)C(=O)NCc1ccc(O)cc1
unit.info: µM
val: 66

---

Target chain: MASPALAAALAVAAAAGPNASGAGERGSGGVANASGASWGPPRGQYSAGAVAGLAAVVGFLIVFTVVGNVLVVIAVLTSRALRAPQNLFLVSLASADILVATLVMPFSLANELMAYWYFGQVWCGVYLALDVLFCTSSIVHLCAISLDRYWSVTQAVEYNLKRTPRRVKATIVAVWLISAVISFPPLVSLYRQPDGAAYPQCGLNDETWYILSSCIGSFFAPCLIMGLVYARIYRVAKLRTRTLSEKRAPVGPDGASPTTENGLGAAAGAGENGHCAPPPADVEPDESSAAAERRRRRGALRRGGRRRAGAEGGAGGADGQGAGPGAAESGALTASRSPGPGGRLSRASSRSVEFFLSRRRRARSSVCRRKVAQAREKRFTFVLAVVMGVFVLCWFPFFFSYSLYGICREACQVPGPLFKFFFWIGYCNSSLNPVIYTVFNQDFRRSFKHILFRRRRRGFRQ
pKi: −log10 of the molar value.
value.kind: pKi

compound: Cl.Cl.c1ccc(Nc2nc(Nc3ccc(N4CCCCC4)cc3)nc3ccccc23)cc1 [Compound 6, dihydrochloride]
val: 6.35

---

Measured Ki of individual entries
# tested.system: human Y1 receptor (Homo sapiens)
# Construct: expressed in transfected cells; host or cells: COS-7 (transient)
# Sequence (P25929 1-384): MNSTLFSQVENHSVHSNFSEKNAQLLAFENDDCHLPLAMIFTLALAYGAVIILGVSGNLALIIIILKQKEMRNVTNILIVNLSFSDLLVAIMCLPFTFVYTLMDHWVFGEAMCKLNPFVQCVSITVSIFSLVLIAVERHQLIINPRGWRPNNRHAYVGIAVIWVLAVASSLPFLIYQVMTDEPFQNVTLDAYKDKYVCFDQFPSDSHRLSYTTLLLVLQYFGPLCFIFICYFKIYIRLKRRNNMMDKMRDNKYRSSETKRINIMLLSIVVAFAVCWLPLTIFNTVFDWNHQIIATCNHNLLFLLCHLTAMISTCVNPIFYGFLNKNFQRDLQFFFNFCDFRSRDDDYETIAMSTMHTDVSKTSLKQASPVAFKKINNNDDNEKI
# measurement.notes: ^125I-PYY binding to membranes, cloned human Y1 receptor
# measurement.conditions: read-out: Binding Affinity Ki vs. ^125I-PYY, Human Receptor Y1; Table 14; stably transfected 293 cells (compound 1 also COS-7)

molecule: Cl.Cl.O=[N+]([O-])c1ccccc1S(=O)(=O)NC[C@H]1CC[C@H](CNCc2ccc3ccccc3n2)CC1 [Compound 26]
Ki [µM]: 23.7
//
molecule: Cl.O=S(=O)(NC[C@H]1CC[C@H](CNCc2cccc3ccccc23)CC1)c1ccccc1C(F)(F)F [Compound 23]
Ki [µM]: 14.5
//
molecule: Cl.O=S(=O)(NC[C@H]1CC[C@H](CNCc2ccc3ccccc3c2)CC1)c1ccccc1C(F)(F)F [Compound 21]
Ki [µM]: 13
//
molecule: Cl.O=S(=O)(NC[C@H]1CC[C@H](CNCC2CCc3ccccc3C2)CC1)c1cccc2ccccc12 (mixture of isomers) [Compound 19]
Ki [µM]: 3.55
//
molecule: Cl.O=[N+]([O-])c1ccccc1S(=O)(=O)NC[C@H]1CC[C@H](CNCC2CCc3ccccc3C2)CC1 (mixture of isomers) [Compound 20]
Ki [µM]: 16
//
molecule: Cl.Cl.Nc1ccccc1S(=O)(=O)NC[C@H]1CC[C@H](CNCC2CCc3ccccc3C2)CC1 (mixture of isomers) [Compound 22]
Ki [µM]: 17.2

These measurements were taken from patent US6713265B1.
